# assay-target: UniProt P23975
# protocol-notes: Inhibition of NET at 1 uM
Each record here notes measured inhibition.
// return numeric value only (unit: %, not printed)

q: Look up inhibition with UniProt P23975 for this compound: CN(C)CC1CC1c1ccc2cc(C#N)ccc2c1 (centres undefined)
a: 69

q: Look up inhibition with UniProt P23975 for this compound: CN(C)CC1CC1c1ccc2ccccc2c1 (single isomer, unassigned; (+))
a: 18

q: Look up inhibition with UniProt P23975 for this compound: CN(C)CC1CC1c1cccc2cc(C#N)ccc12 (centres undefined)
a: 20

q: Look up inhibition with UniProt P23975 for this compound: CN(C)CC1CC1c1ccc2cc(C#N)c(C#N)cc2c1 (centres undefined)
a: 82

q: Look up inhibition with UniProt P23975 for this compound: CN(C)CC1CC1c1n[nH]c2ccc(C#N)cc12 (racemic)
a: -4.9

q: Look up inhibition with UniProt P23975 for this compound: CN(C)CC1CC1c1csc2ccccc12 (stereo in doubt; (+)-6)
a: 13

q: Look up inhibition with UniProt P23975 for this compound: CN(C)CC1CC1c1cccc2ccccc12 (single isomer, unassigned; (+))
a: 2.3

q: Look up inhibition with UniProt P23975 for this compound: CN(C)CC1CC1c1ccc2ccc(C#N)cc2c1 (racemic)
a: 68

q: Look up inhibition with UniProt P23975 for this compound: CN(C)CC1CC1c1cccc2c(C#N)cccc12 (centres undefined)
a: 25

* * *

# assay-target: Sodium-dependent dopamine transporter (Homo sapiens)
# protocol-notes: Inhibition of DAT at 1 uM
readout: inhibition (%)
// return numeric value only (unit: %, not printed)

q: Fill in: inhibition of CN(C)CC1CC1c1csc2ccccc12 (stereo in doubt; (+)-6) is ___
a: 24

q: Fill in: inhibition of CN(C)CC1CC1c1ccc2cc(C#N)ccc2c1 (stereo not drawn) is ___
a: 41

q: Fill in: inhibition of CN(C)CC1CC1c1cccc2ccccc12 (single isomer, unassigned; (+)) is ___
a: 12

* * *

# assay-target: Sodium-dependent dopamine transporter (Homo sapiens, UniProt Q01959)
# Sequence (Q01959 whole entry): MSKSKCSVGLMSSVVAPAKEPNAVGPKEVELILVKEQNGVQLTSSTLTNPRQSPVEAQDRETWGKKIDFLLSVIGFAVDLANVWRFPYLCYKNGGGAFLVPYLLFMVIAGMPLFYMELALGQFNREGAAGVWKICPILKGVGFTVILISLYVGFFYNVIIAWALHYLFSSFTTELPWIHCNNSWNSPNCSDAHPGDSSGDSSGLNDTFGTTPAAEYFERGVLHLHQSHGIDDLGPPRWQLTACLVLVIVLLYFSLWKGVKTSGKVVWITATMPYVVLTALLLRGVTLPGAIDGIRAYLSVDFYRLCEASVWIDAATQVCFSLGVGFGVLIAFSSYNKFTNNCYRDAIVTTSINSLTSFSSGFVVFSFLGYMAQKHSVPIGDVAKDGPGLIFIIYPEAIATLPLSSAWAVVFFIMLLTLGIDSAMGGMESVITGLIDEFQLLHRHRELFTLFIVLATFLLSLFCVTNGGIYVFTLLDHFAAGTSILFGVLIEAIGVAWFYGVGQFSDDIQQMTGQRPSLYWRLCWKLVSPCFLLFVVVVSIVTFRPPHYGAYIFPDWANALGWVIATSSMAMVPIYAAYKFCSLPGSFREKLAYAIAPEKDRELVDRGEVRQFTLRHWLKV
# protocol-notes: Inhibition of DAT at 1 uM
readout: inhibition (%)
// return numeric value only (unit: %, not printed)

Example compounds with recorded inhibition:
q: Fill in: inhibition of CN(C)CC1CC1c1ccc2ccccc2c1 (single isomer, unassigned; (+)) is ___
a: 31

q: Fill in: inhibition of CN(C)CC1CC1c1ccc2cc(C#N)c(C#N)cc2c1 (stereo unspecified) is ___
a: 80

q: Fill in: inhibition of CN(C)CC1CC1c1cccc2cc(C#N)ccc12 (stereo unspecified) is ___
a: 16

New cases:
q: Fill in: inhibition of CN(C)CC1CC1c1cccc2c(C#N)cccc12 (stereo unspecified) is ___
a: 9.5

q: Fill in: inhibition of CN(C)CC1CC1c1n[nH]c2ccc(C#N)cc12 (racemic) is ___
a: 0

q: Fill in: inhibition of CN(C)CC1CC1c1ccc2ccc(C#N)cc2c1 (racemic) is ___
a: 83

* * *

Each record here notes measured pIC50.
# assay-target: Sodium-dependent noradrenaline transporter (Homo sapiens)
# Sequence (P23975 whole entry): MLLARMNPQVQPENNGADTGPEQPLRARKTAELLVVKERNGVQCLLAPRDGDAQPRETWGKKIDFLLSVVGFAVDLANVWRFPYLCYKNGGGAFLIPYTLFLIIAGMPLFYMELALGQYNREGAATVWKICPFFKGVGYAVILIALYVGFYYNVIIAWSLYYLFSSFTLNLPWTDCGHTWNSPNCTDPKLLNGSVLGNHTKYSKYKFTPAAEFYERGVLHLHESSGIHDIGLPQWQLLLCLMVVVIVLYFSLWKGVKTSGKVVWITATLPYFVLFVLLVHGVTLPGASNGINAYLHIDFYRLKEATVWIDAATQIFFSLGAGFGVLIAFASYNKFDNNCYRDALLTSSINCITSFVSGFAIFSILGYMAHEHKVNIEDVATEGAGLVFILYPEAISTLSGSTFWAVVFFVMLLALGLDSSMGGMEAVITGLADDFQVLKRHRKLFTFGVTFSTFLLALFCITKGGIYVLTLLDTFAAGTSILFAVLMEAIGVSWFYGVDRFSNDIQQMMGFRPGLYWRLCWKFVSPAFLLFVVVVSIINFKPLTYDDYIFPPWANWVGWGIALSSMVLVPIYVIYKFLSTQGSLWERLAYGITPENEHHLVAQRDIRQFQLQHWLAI
FYI, pIC50 means -log10 of a concentration in mol per litre.

q: Look up pIC50 with Sodium-dependent noradrenaline transporter (Homo sapiens) for this molecule: CN(C)CC1CC1c1cccc2c(C#N)cccc12 (stereo not given)
a: 4.41

q: Look up pIC50 with Sodium-dependent noradrenaline transporter (Homo sapiens) for this molecule: CN(C)CC1CC1c1cccc2ccccc12 (single isomer, unassigned; (+))
a: 4.17

q: Look up pIC50 with Sodium-dependent noradrenaline transporter (Homo sapiens) for this molecule: CN(C)CC1CC1c1ccc2cc(C#N)ccc2c1 (stereo not given)
a: 6.25

From here, focus on the item given below.
q: Look up pIC50 with Sodium-dependent noradrenaline transporter (Homo sapiens) for this molecule: CN(C)CC1CC1c1ccc2ccc(C#N)cc2c1 (racemic)
a: 6.15
